Values of IC50 for Tyrosine-protein kinase JAK1 (Homo sapiens), collected from a number of published sources:

Here are 2 compounds together with their reported answers.
[
  {
    "compound": "CCNC(=O)N[C@H]1CC[C@H](N(C)c2ncnc3[nH]ccc23)CC1",
    "result_value": "0.043 µM"
  },
  {
    "compound": "O=C(Nc1cccc2c(-c3ccnc(NC(=O)C4CC4)c3)c[nH]c12)c1cnc(F)c(F)c1",
    "result_value": "< 0.1 µM"
  }
]

Query (compound): CNC(=O)c1n[nH]c2cc(-c3cc(F)c(O)cc3CC(F)(F)F)nc(NCc3ccccc3N(C)S(=O)(=O)CCOC)c12 ; field requested: IC50
0.0066 µM

Query (compound): N#CCC1(n2cc(-c3ncnc4[nH]ccc34)cn2)CN([C@H]2CC[C@@H](Oc3cc(CCO)nc(C(F)(F)F)n3)CC2)C1 ; field requested: IC50
< 0.01 µM

Query (compound): CCCCOC(=O)CCn1cc(Nc2nc(-c3cnn(C4(CC#N)CN(S(=O)(=O)CC)C4)c3)c3sccc3n2)cn1 ; field requested: IC50
0.05 to 0.5 µM

Query (compound): CNC(=O)c1n[nH]c2cc(-c3cc(F)c(O)cc3C3CC3)nc(NCc3ccccc3N(C)S(C)(=O)=O)c12 ; field requested: IC50
0.005 µM

Query (compound): CN(c1nc(Nc2cnn(C)c2)ncc1Cl)C1CCN(c2ccc(C#N)cn2)CC1 ; field requested: IC50
0.0008 µM

Query (compound): CCOC(=O)Cn1ccc2cnc(Nc3cnn(C)c3)nc21 ; field requested: IC50
1 to 10 µM

Query (compound): Cc1cc(Nc2ncc(C)c(N3CC(CC#N)(N4CCN(CC(C)C)CC4)C3)n2)sn1 ; field requested: IC50
< 0.015 µM

Query (compound): CC1CC(N2CC(CC#N)(n3cc(-c4ncnc5[nH]ccc45)cn3)C2)CCN1C(=O)c1cccc(F)c1 (single isomer, unassigned) ; field requested: IC50
≤ 0.005 µM

Query (compound): CN(c1ncnc2[nH]ccc12)N1CCCC(C(N)=O)C1 (stereo not shown) ; field requested: IC50
0.1 to 1 µM

Query (compound): CN(c1ncnc2[nH]ccc12)C1CC2(C1)CN(C(=O)CCC(F)(F)F)C2 ; field requested: IC50
0.01 to 0.1 µM

Query (compound): N#CC1(C(=O)Nc2cccc3c2ccn3-c2ccnc(NC(=O)C3CC3)c2)CCOCC1 ; field requested: IC50
> 1 µM

Query (compound): Cc1cccc(Nc2nc(Nc3ccc4c(c3)NCC(O)CO4)ncc2C(N)=O)c1 (stereo not shown) ; field requested: IC50
0.01 to 0.1 µM

Query (compound): CCC1CN(C(=O)CC#N)CN1n1cnc2cnc3[nH]ccc3c21 (stereo not shown) ; field requested: IC50
0.0035 µM

Query (compound): N#CCC(C1CC1)n1cc(-c2nc(C(=O)NC3CCC3)cc3nccn23)cn1 (stereo not shown) ; field requested: IC50
> 1 µM

----------
pIC50: −log10 of the molar value.
Values of pIC50 for Tyrosine-protein kinase JAK1 (Homo sapiens), collected from a number of published sources:

Here are 5 molecules together with their reported answers.
[
  {
    "molecule": "N#CCC1(n2cc(-c3ncnc4[nH]ccc34)cn2)CN(C2CCN(C(=O)c3ccc(-c4ccccc4C#N)c(F)c3)CC2)C1",
    "pIC50": "≥ 8.30"
  },
  {
    "molecule": "Cn1cc(Nc2ncc(Cl)c(NC3CCC4(CC3)CCN(C(=O)CC#N)CC4)n2)cn1",
    "pIC50": 8.70
  },
  {
    "molecule": "CC(C)(CC#N)n1cc(-c2nc(-c3ccc(N4CCOCC4)cc3)cc3nccn23)cn1",
    "pIC50": "6.00 to 7.00"
  },
  {
    "molecule": "C[C@@H](O)c1nc2cnc3ccsc3c2n1C1CCN(CCCC(F)(F)F)CC1",
    "pIC50": "≥ 6.00"
  },
  {
    "molecule": "Cn1cccc(C(=O)Nc2cccc3c(-c4ccnc(NC(=O)C5CC5)c4)c[nH]c23)c1=O",
    "pIC50": "6.00 to 7.00"
  }
]

Requested read-out pIC50, target or system Tyrosine-protein kinase JAK1 (Homo sapiens), entry Cn1cc(-c2cc3nccn3c(-c3cnn(C4(CC#N)CC5(COC5)C4)c3)n2)cn1
6.00 to 7.00

Requested read-out pIC50, target or system Tyrosine-protein kinase JAK1 (Homo sapiens), entry N#CCC1CCN(n2c(N)nc3cnc4[nH]ccc4c32)CC1
9.85

Requested read-out pIC50, target or system Tyrosine-protein kinase JAK1 (Homo sapiens), entry Cc1ncc(NC(=O)c2cccc(C(F)(F)F)c2)cc1-c1ccc2c(c1)[nH]c1ncncc12
≥ 6.30

Requested read-out pIC50, target or system Tyrosine-protein kinase JAK1 (Homo sapiens), entry CCOC(=O)c1cnc2[nH]ccc2c1-c1cnn(C(CC#N)C2CCCC2)c1 (racemic)
≥ 8.00

Requested read-out pIC50, target or system Tyrosine-protein kinase JAK1 (Homo sapiens), entry CS(=O)(=O)N1CCC(N2CC(CC#N)(n3cc(-c4c(F)cnc5[nH]ccc45)cn3)C2)CC1
≥ 8.30

Requested read-out pIC50, target or system Tyrosine-protein kinase JAK1 (Homo sapiens), entry CN(C)C(=O)N1CC(CCF)(n2cc(-c3nc(-c4cnn(C)c4)cc4nccn34)cn2)C1
< 6.00

----------
Values of IC50 for Tyrosine-protein kinase JAK1 (Homo sapiens, UniProt P23458), collected from a number of published sources:

[
  {
    "structure_string": "CCOC(=O)Cn1cc(Nc2ncc3ccn(CC45CC6CC(CC(C6)C4)C5)c3n2)cn1",
    "assayed_system": "Tyrosine-protein kinase JAK1 (Homo sapiens, UniProt P23458)",
    "IC50": "0.1 to 1 µM"
  },
  {
    "structure_string": "N#CCC1(n2cc(-c3c(F)cnc4[nH]ccc34)cn2)CN(C2CCN(C(=O)Nc3cnccc3C(F)(F)F)CC2)C1",
    "assayed_system": "Tyrosine-protein kinase JAK1 (Homo sapiens, UniProt P23458)",
    "IC50": "≤ 0.005 µM"
  }
]

In the following, a different molecule is considered.
Requested read-out IC50, target or system Tyrosine-protein kinase JAK1 (Homo sapiens, UniProt P23458), entry O=C1NCCCCOCc2cc(cc(N3CCOCC3)c2)Nc2nccc(n2)-c2ccc1cc2F
0.101 to 1 µM

----------
Values of pIC50 for Tyrosine-protein kinase JAK1 (Homo sapiens, UniProt P23458), collected from a number of published sources:
pIC50: −log10 of the molar value.

Here are 3 compounds together with their reported answers.
[
  {
    "compound": "O=C(c1noc2c1CN(c1ncnc3[nH]ccc13)CC2)N1CC(C(F)(F)F)C1",
    "pIC50": "> 7.00"
  },
  {
    "compound": "N#CCC(=O)N1CCC[C@@H](Nc2c(C#N)cnc3[nH]ccc23)C1",
    "pIC50": "≥ 8.00"
  },
  {
    "compound": "CN(c1ncnc2[nH]ccc12)[C@H]1CC[C@H](NC(=O)NCC#N)CC1",
    "pIC50": 8.12
  }
]

Query (compound): CN1CCN(c2ccc(-c3cc4nccn4c(-c4cnn(C5(CC#N)CN(CC(F)(F)F)C5)c4)n3)cc2)CC1 ; field requested: pIC50
7.00 to 8.00

Query (compound): CC(C)(O)Cc1cnc2cc(Nc3ncc(Cl)c(NC4CCN(c5ccc(C#N)nn5)CC4)n3)ccn12 ; field requested: pIC50
9.22

Query (compound): C[C@@H](O)c1nc2cnc3ccsc3c2n1[C@H]1CCCN(C(=O)CCCC#N)C1 ; field requested: pIC50
≥ 6.00

Query (compound): COc1nc(CN2CCC(N3CC(CC#N)(n4cc(-c5ncnc6[nH]ccc56)cn4)C3)CC2)ccc1C#N ; field requested: pIC50
7.52 to 7.70

Query (compound): Cc1cc(Nc2ncc(C)c(N3CC(CC#N)(NCC4CCC(F)(F)C4)C3)n2)sn1 (centres unmarked) ; field requested: pIC50
> 8.00

----------
Values of pIC50 for Tyrosine-protein kinase JAK1 (Homo sapiens, UniProt P23458), collected from a number of published sources:
pIC50: −log10 of the molar value.

Here are 4 molecules together with their reported answers.
[
  {
    "molecule": "Clc1cnc2nc1NCCc1cccc(c1)OCc1cccc(c1)N2",
    "recorded_endpoint": "pIC50",
    "result_value": 6.22
  },
  {
    "molecule": "CC1=Cc2cc(Nc3nn([C@@H]4COCC[C@H]4C#N)cc3C(N)=O)cc(C)c2OB1O (relative stereo)",
    "recorded_endpoint": "pIC50",
    "result_value": "> 8.00"
  },
  {
    "molecule": "CCOC(=O)c1cnc2[nH]ccc2c1N[C@H]1C[C@@H](NS(=O)(=O)c2cc(C#N)ccn2)C1",
    "recorded_endpoint": "pIC50",
    "result_value": "≥ 8.00"
  },
  {
    "molecule": "Cn1cc(Nc2ncc(Cl)c(N[C@@H]3COC4C3OC[C@@H]4NS(=O)(=O)CC3CC3)n2)cn1 (stereo partly shown)",
    "recorded_endpoint": "pIC50",
    "result_value": 7.57
  }
]

Requested read-out pIC50, target or system Tyrosine-protein kinase JAK1 (Homo sapiens, UniProt P23458), entry Cc1cnc(NC(=O)c2ccc(C)c(-c3ccc4c(c3)[nH]c3ncncc34)c2)s1
≥ 6.30
